- Species on record: Rattus norvegicus
- method: Open TG-GATES - Regimen: Single
- Type: toxicity, organism-based, Sprague-Dawley
- Set-up: regimen Single, gender Male, age 6 weeks
- reported_conditions: in vivo, po, 0 mg/kg, 9 h, tissue Blood, route gavage, dose level Control
readout_kind: Ret
Value and unit, in that order.

{"columns": ["compound", "Ret"],
 "data": [
  ["O=C(O)c1cn(C2CC2)c2cc(N3CCNCC3)c(F)cc2c1=O", "10.6%"],
  ["Cn1c(=O)c2[nH]cnc2n(C)c1=O.O", "7.5%"],
  ["O=C(O)c1cc(/N=N/c2ccc(S(=O)(=O)Nc3ccccn3)cc2)ccc1O", "7%"],
  ["C[C@H](CS)C(=O)N1CCC[C@H]1C(=O)O", "7.9%"],
  ["CN(C)CCC=C1c2ccccc2CCc2ccccc21", "8.5%"],
  ["COc1ccc(Cc2nccc3cc(OC)c(OC)cc23)cc1OC", "7.9%"],
  ["CSc1ccc2c(c1)N(CCC1CCCCN1C)c1ccccc1S2 (configuration not stated)", "7.6%"],
  ["NC(=O)N1c2ccccc2C=Cc2ccccc21 [CARBAMAZEPINE]", "6.6%"]
]}

# Ret (compound: CCc1cc(C(N)=S)ccn1 [ETHIONAMIDE] ) is 7.9%

"Clc1ccccc1CN1CCc2sccc2C1" yielded Ret of 7.6%

Consider "CC(=O)Oc1ccccc1C(=O)O" . Its measured Ret is 8%

The reported value for "NC(=O)N/N=C/c1ccc([N+](=O)[O-])o1" in terms of Ret is 10.5%
